Target: T1, 6x His-tagged ENL YEATS domain (human, UniProt Q03111 1-138)
T1 sequence (looked up): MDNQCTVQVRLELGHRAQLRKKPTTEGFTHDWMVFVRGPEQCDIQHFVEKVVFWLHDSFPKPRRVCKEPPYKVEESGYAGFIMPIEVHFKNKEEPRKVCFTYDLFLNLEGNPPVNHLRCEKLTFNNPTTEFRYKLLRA
Assay: AlphaScreen or HTRF
No end group written: not given here. *: point of attachment. Oxazole(5-CO) = O=C(c1cnco1)*; 2Furoyl = O=C(c1ccco1)*; Butyryl = CCCC(=O)*
true (1) if IC50 is below 20 nM. false (0) if not; exact matches included in false (0).

YDVYCYK(Butyryl)-NH2 [ENL-S1] ... false (0)
YDVYCYK(2Furoyl)-NH2 [ENL-S1f] ... false (0)
WWIIEK(Butyryl)G-NH2 [ENL-S2] ... false (0)
YDVYCYK(Oxazole(5-CO))-NH2 [ENL-S1o] ... true (1)

Values were extracted from paper doi:10.1101/2023.01.08.523168.
